Tested on: MCF-10A non-tumor mammary epithelial cell line
assay-method-text: in vitro
Type: cell-based, human
details: MTT assay, MCF-10A; read-out: Cytotoxicity, IC50, MCF-10A
# reported IC50; entries follow

Below are worked cases with known answers.
For the compound C=C(C)CC[C@@H](O)[C@]1(C)OC(=O)C23CC=C4[C@@H](CC[C@H]5C(C)(C)[C@@H](O[C@@H]6OC[C@@H](O[C@@H]7O[C@H](CO)[C@@H](O)[C@H](O[C@@H]8O[C@H](CO)[C@@H](O)[C@H](OC)[C@H]8O)[C@H]7O)[C@H](O)[C@H]6O[C@@H]6O[C@H](C)[C@@H](O[C@@H]7OC[C@@H](O)[C@H](O[C@@H]8O[C@H](COS(=O)(=O)[O-])[C@@H](O)[C@H](OC)[C@H]8O)[C@H]7O)[C@H](O)[C@H]6O)CC[C@]45C)[C@]2(C)C[C@H](OC(C)=O)[C@@H]31.[Na+] (stereo partly drawn) [Cladoloside K2 (32), cladoloside K2] , what IC50 is on record?
14.5 µM

Next compound up: C=C(C)CC[C@@H](OC(C)=O)[C@]1(C)OC(=O)C23CC=C4[C@@H](CC[C@H]5C(C)(C)[C@@H](O[C@@H]6OC[C@@H](O[C@@H]7O[C@H](CO)[C@@H](O)[C@H](O)[C@H]7O)[C@H](O)[C@H]6O[C@@H]6O[C@H](C)[C@@H](O[C@@H]7OC[C@@H](O)[C@H](O[C@@H]8O[C@H](CO)[C@@H](O)[C@H](OC)[C@H]8O)[C@H]7O)[C@H](O)[C@H]6O)CC[C@]45C)[C@]2(C)C[C@H](OC(C)=O)[C@@H]31 (stereo partly drawn) [Cladoloside B2 (12), cladoloside B2]
12.2 µM

Further cases:
// returns reported IC50 for input CO[C@@H]1[C@@H](O)[C@H](O[C@@H]2[C@@H](O)[C@H](O[C@@H]3CO[C@@H](O[C@H]4CC[C@]5(C)C6=CCC78C(=O)O[C@@](C)([C@@H](CCC(C)C)OC(C)=O)[C@H]7[C@@H](OC(C)=O)C[C@@]8(C)[C@@H]6CC[C@H]5C4(C)C)[C@H](O[C@@H]4O[C@H](C)[C@@H](O[C@@H]5OC[C@@H](O)[C@H](O[C@@H]6O[C@H](CO)[C@@H](O)[C@H](OC)[C@H]6O)[C@H]5O)[C@H](O)[C@H]4O)[C@H]3O)O[C@H](CO)[C@H]2O)O[C@H](CO)[C@H]1O (stereo partly drawn) [Cladoloside C1 (14), cladoloside C1]
> 20 µM

----------
System: MCF-7 human breast cancer cells;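 note: IC50 values, including those behind the selectivity ratio, derive from formazan absorbance at 570 nm, tested in triplicate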
assay-method-text: cells
Assay type: cell-based
details: MTT assay, MCF-7; read-out: Cytotoxicity, IC50, MCF-7
In this section we review reported IC50 values for a set of molecules.

Fill in the recorded IC50 for this molecule, with MCF-7 human breast cancer cells as test system: C=C(C)CC[C@@H](OC(C)=O)[C@]1(C)OC(=O)C23CC=C4[C@@H](CC[C@H]5C(C)(C)[C@@H](O[C@@H]6OC[C@@H](O[C@@H]7OC[C@@H](O)[C@H](O[C@@H]8O[C@H](CO)[C@@H](O)[C@H](OC)[C@H]8O)[C@H]7O)[C@H](O)[C@H]6O[C@@H]6O[C@H](C)[C@@H](O[C@@H]7OC[C@@H](O)[C@H](O[C@@H]8O[C@H](CO)[C@@H](O)[C@H](OC)[C@H]8O)[C@H]7O)[C@H](O)[C@H]6O)CC[C@]45C)[C@]2(C)C[C@H](OC(C)=O)[C@@H]31 (stereo partly drawn) [Cladoloside G (25), cladoloside G]
> 20 µM

Cool, now C=C(C)CCC[C@]1(C)OC(=O)C23CC=C4[C@@H](CC[C@H]5C(C)(C)[C@@H](O[C@@H]6OC[C@@H](O[C@@H]7O[C@H](CO)[C@@H](O)[C@H](O[C@@H]8O[C@H](CO)[C@@H](O)[C@H](OC)[C@H]8O)[C@H]7O)[C@H](O)[C@H]6O[C@@H]6O[C@H](C)[C@@H](O[C@@H]7OC[C@@H](O)[C@H](O[C@@H]8O[C@H](CO)[C@@H](O)[C@H](O)[C@H]8O)[C@H]7O)[C@H](O)[C@H]6O)CC[C@]45C)[C@]2(C)CC(=O)[C@@H]31 (stereo partly drawn) [Cladoloside P2 (41), Cladoloside P2]
16.3 µM

Moving on to CO[C@@H]1[C@@H](O)[C@H](O[C@@H]2[C@@H](O)[C@H](O[C@@H]3CO[C@@H](O[C@H]4CC[C@]5(C)C6=CCC78C(=O)O[C@@](C)([C@@H](CCC(C)C)OC(C)=O)[C@H]7[C@@H](OC(C)=O)C[C@@]8(C)[C@@H]6CC[C@H]5C4(C)C)[C@H](O[C@@H]4O[C@H](C)[C@@H](O[C@@H]5OC[C@@H](O)[C@H](O[C@@H]6O[C@H](CO)[C@@H](O)[C@H](OC)[C@H]6O)[C@H]5O)[C@H](O)[C@H]4O)[C@H]3O)O[C@H](CO)[C@H]2O)O[C@H](CO)[C@H]1O (stereo partly drawn) [Cladoloside C1 (14), cladoloside C1]
> 20 µM

Provenance of the data: paper PMC12299463
